Biological target: SMARCA2 (Homo sapiens, UniProt P51531)
Construct: endogenous in cells; host or cells: HT1080 (CRISPR HiBiT knock-in clone, generated in house)
Sequence (P51531 whole entry): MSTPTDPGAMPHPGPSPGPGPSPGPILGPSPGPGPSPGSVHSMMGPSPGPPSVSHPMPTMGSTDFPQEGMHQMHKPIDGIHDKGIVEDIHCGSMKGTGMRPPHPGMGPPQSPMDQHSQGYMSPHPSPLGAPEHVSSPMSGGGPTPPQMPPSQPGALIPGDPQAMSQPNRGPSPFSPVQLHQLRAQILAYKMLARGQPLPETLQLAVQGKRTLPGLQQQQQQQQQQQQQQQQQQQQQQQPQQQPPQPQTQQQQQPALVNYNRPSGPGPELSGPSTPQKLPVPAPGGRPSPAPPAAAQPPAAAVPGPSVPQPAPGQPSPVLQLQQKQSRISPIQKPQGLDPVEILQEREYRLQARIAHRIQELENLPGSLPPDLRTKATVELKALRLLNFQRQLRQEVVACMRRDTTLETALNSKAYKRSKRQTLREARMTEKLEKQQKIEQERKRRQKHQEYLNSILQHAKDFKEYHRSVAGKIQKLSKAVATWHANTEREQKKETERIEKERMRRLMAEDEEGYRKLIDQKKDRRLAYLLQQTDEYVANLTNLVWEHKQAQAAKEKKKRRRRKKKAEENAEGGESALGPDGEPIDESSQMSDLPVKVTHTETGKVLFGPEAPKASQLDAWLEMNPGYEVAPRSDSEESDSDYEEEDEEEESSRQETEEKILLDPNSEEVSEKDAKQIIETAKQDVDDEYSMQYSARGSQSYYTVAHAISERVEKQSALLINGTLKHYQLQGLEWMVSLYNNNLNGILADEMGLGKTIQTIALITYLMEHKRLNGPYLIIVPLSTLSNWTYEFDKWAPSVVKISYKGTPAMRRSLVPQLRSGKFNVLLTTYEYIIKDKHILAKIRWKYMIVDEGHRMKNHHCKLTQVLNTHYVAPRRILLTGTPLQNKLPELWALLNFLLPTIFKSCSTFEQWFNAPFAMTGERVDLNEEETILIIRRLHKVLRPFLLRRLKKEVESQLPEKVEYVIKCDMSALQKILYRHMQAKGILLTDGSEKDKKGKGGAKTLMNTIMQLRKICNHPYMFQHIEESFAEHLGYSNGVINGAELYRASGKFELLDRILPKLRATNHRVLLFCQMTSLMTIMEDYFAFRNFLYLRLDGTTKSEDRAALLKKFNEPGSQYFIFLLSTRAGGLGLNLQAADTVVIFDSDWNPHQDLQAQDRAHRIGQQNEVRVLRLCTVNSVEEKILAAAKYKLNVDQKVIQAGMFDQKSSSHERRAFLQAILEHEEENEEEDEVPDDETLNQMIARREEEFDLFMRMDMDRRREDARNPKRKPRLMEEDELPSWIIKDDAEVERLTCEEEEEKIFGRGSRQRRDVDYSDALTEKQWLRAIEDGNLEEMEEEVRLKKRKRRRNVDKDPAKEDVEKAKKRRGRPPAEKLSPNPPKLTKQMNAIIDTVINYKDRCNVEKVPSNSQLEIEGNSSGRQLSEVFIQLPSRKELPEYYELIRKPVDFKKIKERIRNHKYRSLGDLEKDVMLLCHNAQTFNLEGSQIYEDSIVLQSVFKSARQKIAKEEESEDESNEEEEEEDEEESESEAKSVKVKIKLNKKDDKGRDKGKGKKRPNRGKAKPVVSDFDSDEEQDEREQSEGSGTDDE
Assay: SMARCA2 HiBiT degradation assay (cellular)
Format: cell-based
Conditions: A549, 6 h incubation; Emax = amount of residual protein remaining in the cell following compound treatment; table head names A549
VALUE_KIND: Emax (%)
Lab book: enter the figure in %, no units written.

Write down Emax measured for item Nc1nnc(-c2ccccc2O)cc1N1CC2CCC(C1)N2c1cccc(CN2CCN(C(=O)C3CCN(c4ccc5c(c4)C(=O)N(C4CCC(=O)NC4=O)C5=O)CC3)CC2)c1 (racemic)
24

For the compound Nc1nnc(-c2cc(F)cc(F)c2O)cc1N1CCC(CNC(=O)CCCN2CCC(c3ccc(OC4CCC(=O)NC4=O)cc3)CC2)(c2ccccc2)CC1 (stereo not drawn) , report Emax.
47

Please give the documented Emax of Nc1nnc(-c2ccccc2O)cc1N1CCC(C(=O)N2CCC(C(=O)N3CCC(c4ccc(NC5CCC(=O)NC5=O)cn4)CC3)CC2)(c2ccccc2)CC1 (stereo not drawn)
69

###

Target: SMARCA2 (Homo sapiens, UniProt P51531)
Construct: endogenous in cells; host or cells: HT1080 (CRISPR HiBiT knock-in clone, generated in house)
Assay: SMARCA2 HiBiT degradation assay (cellular)
Type: cell-based
Conditions: A549, 6 h incubation; Emax = amount of residual protein remaining in the cell following compound treatment; table head names A549
Assignment: determine reported Emax for the given molecules.
I'd appreciate it if you wrote the number followed by its unit.

Let me know recorded Emax for Nc1nnc(-c2ccccc2O)cc1N1CC(Oc2cccc(N3CCN(C(=O)C4CCN(c5ccc6c(c5)C(=O)N(C5CCC(=O)NC5=O)C6=O)CC4)CC3)c2)C1 (racemic) , thanks.
42%

Identify the reported Emax for the following entry. Nc1nnc(-c2ccccc2O)cc1N1CCC(C(=O)N2CC3(CCN(C(=O)C4CCN(c5ccc6c(c5)C(=O)N(C5CCC(=O)NC5=O)C6=O)CC4)CC3)C2)(c2ccccc2)CC1 (stereo not drawn)
33%

Kindly indicate its recorded Emax. Item: Nc1nnc(-c2ccccc2O)cc1N1CCC(C(=O)N2CCC3(CC2)CN(C(=O)CN2CCN(c4ccc(NC5CCC(=O)NC5=O)cc4)CC2)CCO3)(c2ccccc2)CC1 (stereo not drawn)
72%

###

Molecular target: SMARCA2 (Homo sapiens, UniProt P51531)
Construct: endogenous in cells; host or cells: HT1080 (CRISPR HiBiT knock-in clone, generated in house)
Assay: SMARCA2 HiBiT degradation assay (cellular)
Type: cell-based
Details: A549, 6 h incubation; Emax = amount of residual protein remaining in the cell following compound treatment; table head names A549
Answer each item with its documented Emax.
Just the number please, in %, no unit attached.

Give reported Emax for Nc1nnc(-c2ccccc2O)cc1N1CC(Oc2cccc(CN3CCN(C(=O)CCCCCCNc4cccc5c4C(=O)N(C4CCC(=O)NC4=O)C5=O)CC3)c2)C1 (stereo not drawn) [Example 30] (SMARCA2 (Homo sapiens, UniProt P51531))
63

Retrieve Emax on SMARCA2 (Homo sapiens, UniProt P51531); query Nc1nnc(-c2ccccc2O)cc1N1CCC(CNC(=O)C2CCN(c3cccc4c3C(=O)N(C3CCC(=O)NC3=O)C4=O)CC2)(c2ccccc2)CC1 (stereo not drawn) [Example 71]
46

Report value only: Emax, SMARCA2 (Homo sapiens, UniProt P51531), Nc1nnc(-c2ccccc2O)cc1N1CC(Oc2cccc(CN3CCN(C(=O)CCC4CCN(c5ccc6c(c5)C(=O)N(C5CCC(=O)NC5=O)C6=O)CC4)CC3)c2)C1 (racemic) [Example 154]
16
